- ASSAY_INFO: Single dose clinical study: plasma Compound A pharmacokinetics
- Type: in vivo, human
- RUN_CONDITIONS: human, plasma, po, 200 mg, plasma, healthy adults (Parts A,B), single oral 200 mg, fasted; read-out: tmax Median
OBSERVED_PROPERTY: Tmax (h)

INSERT INTO assay_data (item_smiles, measured_result) VALUES
  ('COc1ncc(C)c(-c2ccc3c(c2)[nH]c(=O)c2cnn([C@H]4CCOC4)c23)c1C', 2);

----------
- ASSAY_INFO: Single dose clinical study Part B: CSF Compound A pharmacokinetics
- Assay type: in vivo
- RUN_CONDITIONS: human, CSF and plasma, po, 100 mg, healthy adults Part B, single oral 100 mg, fasted; read-out: CSF: plasma Cmax ratio (expressed as %) GM (% CV)
- Method: After the Screening Period, subjects returned to the clinic on […] for Baseline procedures. […] Serial CSF sampling via the lumbar catheter commenced on Day 1, after an overnight fast. CSF samples were collected on Day 1 over a period of 3 hours predose. […] Concentrations of Compound A in CSF were analyzed in serial CSF samples collected at predose and postdose at 1, 2, 3, 4, 5, 6, 8, 10, 12, 14, 16, 18, 24, and 30 hours. […]
OBSERVED_PROPERTY: Kp

INSERT INTO assay_data (compound, observed_property, measured_result) VALUES
  ('COc1ncc(C)c(-c2ccc3c(c2)[nH]c(=O)c2cnn([C@H]4CCOC4)c23)c1C [Compound A]', 'Kp', 0.0194);

----------
- ASSAY_INFO: Single dose clinical study: plasma Compound A pharmacokinetics
- Format: in vivo, human
- RUN_CONDITIONS: human, plasma, po, 800 mg, plasma, healthy adults (Parts A,B), single oral 800 mg, fasted; read-out: AUC(0-30 h) GM
OBSERVED_PROPERTY: AUC(0-t) (µg·h/mL)

INSERT INTO measurements (item_smiles, unit_annotation, measured_result) VALUES
  ('COc1ncc(C)c(-c2ccc3c(c2)[nH]c(=O)c2cnn([C@H]4CCOC4)c23)c1C', 'µg·h/mL', 34.5);

----------
- ASSAY_INFO: Single dose clinical study: plasma Compound A pharmacokinetics
- Format: in vivo, human
- RUN_CONDITIONS: human, plasma, oral, 25 mg, non-Japanese, 25 mg, with weight as covariate; read-out: AUC(O-inf) Geometric LS Means Reference
OBSERVED_PROPERTY: AUC

INSERT INTO measurements (item_smiles, measured_result) VALUES
  ('COc1ncc(C)c(-c2ccc3c(c2)[nH]c(=O)c2cnn([C@H]4CCOC4)c23)c1C', '4350 ng·h/mL');

----------
- ASSAY_INFO: Single dose clinical study: plasma Compound A pharmacokinetics
- Format: in vivo, human
- RUN_CONDITIONS: human, plasma, po, 100 mg, plasma, Part B 100 mg cohort, single oral 100 mg, Fed (high-fat meal); read-out: t1/2 Mean (SD) (converted)
OBSERVED_PROPERTY: half-life (h)

INSERT INTO results (item_smiles, measured_result) VALUES
  ('COc1ncc(C)c(-c2ccc3c(c2)[nH]c(=O)c2cnn([C@H]4CCOC4)c23)c1C', 26);

----------
- ASSAY_INFO: Multiple ascending dose study: plasma pharmacokinetics
- Assay type: in vivo
- RUN_CONDITIONS: human, po, 5 mg, Day 1, 5 mg QD oral, read-out: AUC(0-24 h) GM (% CV)
OBSERVED_PROPERTY: AUC(0-t) (ng·h/mL)

INSERT INTO assay_data (item_smiles, measured_result) VALUES
  ('COc1ncc(C)c(-c2ccc3c(c2)[nH]c(=O)c2cnn([C@H]4CCOC4)c23)c1C', 344);
